Molecular target: Cav1.2 (Homo sapiens, UniProt Q13936)
Sequence (Q13936 whole entry): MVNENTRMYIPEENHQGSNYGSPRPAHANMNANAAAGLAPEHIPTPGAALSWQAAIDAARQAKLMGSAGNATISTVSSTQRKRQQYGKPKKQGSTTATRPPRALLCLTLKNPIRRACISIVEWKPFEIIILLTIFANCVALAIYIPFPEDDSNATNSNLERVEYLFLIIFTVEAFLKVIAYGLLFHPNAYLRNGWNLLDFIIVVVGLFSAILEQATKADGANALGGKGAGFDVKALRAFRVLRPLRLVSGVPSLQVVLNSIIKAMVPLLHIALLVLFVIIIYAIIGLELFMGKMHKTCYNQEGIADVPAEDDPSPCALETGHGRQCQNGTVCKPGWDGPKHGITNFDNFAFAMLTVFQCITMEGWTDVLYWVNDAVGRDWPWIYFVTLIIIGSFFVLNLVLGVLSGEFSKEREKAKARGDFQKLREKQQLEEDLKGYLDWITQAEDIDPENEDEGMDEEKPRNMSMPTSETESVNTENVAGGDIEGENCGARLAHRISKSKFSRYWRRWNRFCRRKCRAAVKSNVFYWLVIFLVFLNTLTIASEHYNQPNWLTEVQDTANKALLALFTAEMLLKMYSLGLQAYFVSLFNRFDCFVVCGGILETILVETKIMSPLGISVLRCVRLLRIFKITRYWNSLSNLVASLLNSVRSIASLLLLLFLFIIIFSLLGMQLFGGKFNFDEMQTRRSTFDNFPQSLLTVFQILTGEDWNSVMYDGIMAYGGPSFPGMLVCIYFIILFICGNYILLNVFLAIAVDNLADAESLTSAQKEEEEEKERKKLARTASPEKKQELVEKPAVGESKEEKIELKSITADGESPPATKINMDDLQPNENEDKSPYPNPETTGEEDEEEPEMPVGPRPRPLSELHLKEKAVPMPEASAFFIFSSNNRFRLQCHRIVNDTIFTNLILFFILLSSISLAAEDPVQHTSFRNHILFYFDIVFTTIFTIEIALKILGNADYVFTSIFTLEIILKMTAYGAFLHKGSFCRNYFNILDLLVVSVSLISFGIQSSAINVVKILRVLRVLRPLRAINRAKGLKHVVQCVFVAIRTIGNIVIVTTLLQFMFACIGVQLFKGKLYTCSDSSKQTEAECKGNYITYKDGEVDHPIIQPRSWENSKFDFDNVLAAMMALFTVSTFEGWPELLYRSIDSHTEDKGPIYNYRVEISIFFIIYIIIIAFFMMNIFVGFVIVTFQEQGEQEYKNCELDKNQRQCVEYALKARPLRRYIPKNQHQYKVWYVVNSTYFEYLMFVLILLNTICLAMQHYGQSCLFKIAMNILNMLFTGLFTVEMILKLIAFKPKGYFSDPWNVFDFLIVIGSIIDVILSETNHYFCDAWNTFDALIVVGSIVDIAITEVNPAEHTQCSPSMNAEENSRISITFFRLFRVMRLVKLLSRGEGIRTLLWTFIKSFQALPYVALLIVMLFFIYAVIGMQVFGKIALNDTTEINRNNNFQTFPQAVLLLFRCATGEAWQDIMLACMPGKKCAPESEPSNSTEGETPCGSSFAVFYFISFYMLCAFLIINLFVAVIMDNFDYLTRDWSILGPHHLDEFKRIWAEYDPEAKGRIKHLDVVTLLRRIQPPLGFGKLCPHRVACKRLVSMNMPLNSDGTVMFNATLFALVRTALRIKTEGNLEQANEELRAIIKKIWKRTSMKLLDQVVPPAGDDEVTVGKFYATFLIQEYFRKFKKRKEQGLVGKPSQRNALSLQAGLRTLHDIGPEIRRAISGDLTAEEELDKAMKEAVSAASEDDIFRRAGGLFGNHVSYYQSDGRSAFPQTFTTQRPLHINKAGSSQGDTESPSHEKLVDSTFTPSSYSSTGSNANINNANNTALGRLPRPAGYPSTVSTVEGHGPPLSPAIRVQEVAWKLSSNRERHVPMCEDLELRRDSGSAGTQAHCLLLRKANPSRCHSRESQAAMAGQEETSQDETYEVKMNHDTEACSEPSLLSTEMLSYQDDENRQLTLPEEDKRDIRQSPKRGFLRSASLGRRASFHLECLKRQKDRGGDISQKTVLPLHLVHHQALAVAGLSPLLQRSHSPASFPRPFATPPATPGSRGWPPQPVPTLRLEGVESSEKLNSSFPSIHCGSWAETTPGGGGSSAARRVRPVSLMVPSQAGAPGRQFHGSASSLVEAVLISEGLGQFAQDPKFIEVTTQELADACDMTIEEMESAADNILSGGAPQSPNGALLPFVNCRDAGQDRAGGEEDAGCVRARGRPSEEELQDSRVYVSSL
Sequence (P54289 25-944 partner limits assumed): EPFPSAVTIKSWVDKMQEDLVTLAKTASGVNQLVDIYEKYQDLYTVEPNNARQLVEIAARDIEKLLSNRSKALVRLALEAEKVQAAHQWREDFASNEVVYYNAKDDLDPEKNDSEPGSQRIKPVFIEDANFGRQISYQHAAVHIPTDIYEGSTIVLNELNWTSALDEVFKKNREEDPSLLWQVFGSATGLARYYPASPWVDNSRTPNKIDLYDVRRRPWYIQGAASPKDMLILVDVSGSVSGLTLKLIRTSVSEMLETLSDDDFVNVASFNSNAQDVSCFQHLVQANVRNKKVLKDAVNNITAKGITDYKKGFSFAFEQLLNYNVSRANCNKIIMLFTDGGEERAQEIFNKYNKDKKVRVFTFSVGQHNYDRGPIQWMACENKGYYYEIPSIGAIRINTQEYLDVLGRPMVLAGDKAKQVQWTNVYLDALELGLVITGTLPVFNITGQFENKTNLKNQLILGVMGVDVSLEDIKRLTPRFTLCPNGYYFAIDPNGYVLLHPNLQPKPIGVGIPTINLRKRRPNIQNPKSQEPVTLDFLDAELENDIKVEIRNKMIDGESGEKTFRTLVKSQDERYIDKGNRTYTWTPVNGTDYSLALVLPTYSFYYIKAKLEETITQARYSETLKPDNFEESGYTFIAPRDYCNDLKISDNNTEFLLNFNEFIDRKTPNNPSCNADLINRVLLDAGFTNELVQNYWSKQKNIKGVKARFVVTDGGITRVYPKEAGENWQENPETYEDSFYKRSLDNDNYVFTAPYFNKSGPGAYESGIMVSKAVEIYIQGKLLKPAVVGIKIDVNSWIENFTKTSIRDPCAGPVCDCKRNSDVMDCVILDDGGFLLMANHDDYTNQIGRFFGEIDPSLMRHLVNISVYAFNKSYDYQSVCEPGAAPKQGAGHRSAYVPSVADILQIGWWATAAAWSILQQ
Sequence (P54289 945-1103 partner limits assumed): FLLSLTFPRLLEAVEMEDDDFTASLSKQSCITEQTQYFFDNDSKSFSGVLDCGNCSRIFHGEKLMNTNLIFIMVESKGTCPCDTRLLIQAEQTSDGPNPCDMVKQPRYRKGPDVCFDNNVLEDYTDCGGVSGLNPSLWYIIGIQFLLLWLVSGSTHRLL
Test: Functional screening panel, Cav1.2
Assay type: biochemical
Details: read-out: IC/EC50 Cav1.2
Procedure: A broad panel of 78 recombinant targets was tested for pharmacologic activity in vitro through a variety of functional assays (Eurofins DiscoverX, USA), as part of the National Institute of Neurological Disorders and Stroke (NINDS) Preclinical Screening Platform for Pain (PSPP) program. […] For each test, a reference compound was evaluated at the target of interest as a positive control.
readout: IC50 (nM)
Answer in nM, number only, no unit symbol.

Field IC50 (entry O=C(Cc1nccc(-n2cc(Cl)c3cc(Cl)cc(Cl)c32)n1)NC1COCC1O (stereo not shown) ) reads 2990

This collection of values is drawn from patent US20260327211A1.
